FYI, the data here is from paper PMC7339578.

protocolNotes: Plasma pharmacokinetics in rats after a 30-min intravenous infusion of Kang-Ai injection
Type: in vivo, Sprague–Dawley rats
condition: male, Sprague-Dawley, in vivo; rat; Kang-Ai injection 6 mL/kg iv; read-out: CLtot, p (converted)
readoutKind: clearance (mL/min/kg)
Your answer should be a plain number; it is taken to be in mL/min/kg.

# query: clearance of entry O=C1C=CC[C@@H]2[C@H]3CCC[N+]4([O-])CCC[C@@H](CN12)[C@@H]34 (stereo partly shown)
0.205

###

// values below are reported At -80 °C for 48 h, RE
protocolNotes: Stability tests of analytes in rat plasma QC samples
Type: in vitro ADME
condition: rat plasma, nominal conc. 100 nM
Experimental: […] The dilution integrity was investigated by analyzing six replicate samples with each analyte, and each analyte were diluted 10-fold with blank rat matrix. Furthermore, the diluted samples were analyzed using freshly prepared calibration curve to calculate RE and RSD, which should be no more than ± 15% as criterion.
Your answer should be a plain number; it is taken to be in %.

CC(C)=CCC[C@](C)(O)[C@H]1CC[C@]2(C)[C@@H]1[C@H](O)C[C@@H]1[C@@]3(C)CC[C@H](O)C(C)(C)[C@@H]3[C@@H](O[C@@H]3O[C@H](CO)[C@@H](O)[C@H](O)[C@H]3O[C@@H]3O[C@H](CO)[C@@H](O)[C@H](O)[C@H]3O)C[C@]12C [Compound C7, Ginsenoside Rf] = 13.37

// next entry
# query: At -80 °C for 48 h, RE of entry O=C1C=CC[C@@H]2[C@H]3CCC[N+]4([O-])CCC[C@@H](CN12)[C@@H]34 (some centres unmarked)
13.54
